- ASSAY_INFO: Growth inhibition of human MOLT4 cells assessed as cell growth at 10^-5 M after 48 hrs by sulforhodamine B assay
- Assay type: functional
- ASSAY_CONDITIONS: MOLT-4, 48 h, read-out: Activity
REPORTED_PROPERTY: growth at 10 µM (%)

INSERT INTO results (smiles_representation, reported_property, reported_value) VALUES
  ('O=C1/C(=C/c2c(Cl)cccc2Cl)CN(S(=O)(=O)c2ccccc2)C/C1=C\c1c(Cl)cccc1Cl', 'growth at 10 µM', 52.8),
  ('Cc1ccc(S(=O)(=O)N2C/C(=C\c3cc(F)cc(F)c3)C(=O)/C(=C/c3cc(F)cc(F)c3)C2)cc1', 'growth at 10 µM', -17),
  ('O=C1/C(=C/c2ccc(Cl)cc2Cl)CN(S(=O)(=O)c2ccccc2)C/C1=C\c1ccc(Cl)cc1Cl', 'growth at 10 µM', -2),
  ('Cc1ccc(S(=O)(=O)N2C/C(=C\c3c(Cl)cccc3Cl)C(=O)/C(=C/c3c(Cl)cccc3Cl)C2)cc1', 'growth at 10 µM', 68.7);

* * *

Listed molecules paired with reported growth at 10 µM
- Tested on: ACHN
- ASSAY_INFO: Growth inhibition of human ACHN cells assessed as cell growth at 10^-5 M after 48 hrs by sulforhodamine B assay
- Assay type: functional
- ASSAY_CONDITIONS: read-out: Activity
REPORTED_PROPERTY: growth at 10 µM (%)

INSERT INTO assay_data (smiles_representation, reported_property, reported_value) VALUES
  ('O=C1/C(=C/c2c(Cl)cccc2Cl)CN(S(=O)(=O)c2ccccc2)C/C1=C\c1c(Cl)cccc1Cl', 'growth at 10 µM', 76.3),
  ('O=C1/C(=C/c2ccc(Cl)cc2Cl)CN(S(=O)(=O)c2ccccc2)C/C1=C\c1ccc(Cl)cc1Cl', 'growth at 10 µM', -24),
  ('Cc1ccc(S(=O)(=O)N2C/C(=C\c3cc(F)cc(F)c3)C(=O)/C(=C/c3cc(F)cc(F)c3)C2)cc1', 'growth at 10 µM', -91.4),
  ('Cc1ccc(S(=O)(=O)N2C/C(=C\c3c(Cl)cccc3Cl)C(=O)/C(=C/c3c(Cl)cccc3Cl)C2)cc1', 'growth at 10 µM', 84.2);

* * *

- Test system: MDA-MB-468
- ASSAY_INFO: Growth inhibition of human MDA-MB-468 cells assessed as cell growth at 10^-5 M after 48 hrs by sulforhodamine B assay
- Format: functional
- ASSAY_CONDITIONS: MDA-MB-468, 48 h, read-out: Activity
REPORTED_PROPERTY: growth at 10 µM (%)

INSERT INTO results (smiles_representation, unit_spec, reported_value) VALUES
  ('Cc1ccc(S(=O)(=O)N2C/C(=C\c3c(Cl)cccc3Cl)C(=O)/C(=C/c3c(Cl)cccc3Cl)C2)cc1', '%', 90.4),
  ('Cc1ccc(S(=O)(=O)N2C/C(=C\c3cc(F)cc(F)c3)C(=O)/C(=C/c3cc(F)cc(F)c3)C2)cc1', '%', -73),
  ('O=C1/C(=C/c2ccc(Cl)cc2Cl)CN(S(=O)(=O)c2ccccc2)C/C1=C\c1ccc(Cl)cc1Cl', '%', -38),
  ('O=C1/C(=C/c2c(Cl)cccc2Cl)CN(S(=O)(=O)c2ccccc2)C/C1=C\c1c(Cl)cccc1Cl', '%', 80.4);

* * *

- Tested on: T47D
- ASSAY_INFO: Growth inhibition of human T47D cells assessed as cell growth at 10^-5 M after 48 hrs by sulforhodamine B assay
- Assay type: functional
- ASSAY_CONDITIONS: read-out: Activity
Listed here are compounds together with their documented growth at 10 µM.
REPORTED_PROPERTY: growth at 10 µM (%)

INSERT INTO measurements (smiles_representation, reported_property, reported_value) VALUES
  ('Cc1ccc(S(=O)(=O)N2C/C(=C\c3cc(F)cc(F)c3)C(=O)/C(=C/c3cc(F)cc(F)c3)C2)cc1', 'growth at 10 µM', -20),
  ('Cc1ccc(S(=O)(=O)N2C/C(=C\c3c(Cl)cccc3Cl)C(=O)/C(=C/c3c(Cl)cccc3Cl)C2)cc1', 'growth at 10 µM', 94),
  ('O=C1/C(=C/c2ccc(Cl)cc2Cl)CN(S(=O)(=O)c2ccccc2)C/C1=C\c1ccc(Cl)cc1Cl', 'growth at 10 µM', 7),
  ('O=C1/C(=C/c2c(Cl)cccc2Cl)CN(S(=O)(=O)c2ccccc2)C/C1=C\c1c(Cl)cccc1Cl', 'growth at 10 µM', 88.8);

* * *

- System: HT-29
- ASSAY_INFO: Growth inhibition of human HT-29 cells assessed as cell growth at 10^-5 M after 48 hrs by sulforhodamine B assay
- Assay type: functional
- ASSAY_CONDITIONS: HT-29, 48 h, read-out: Activity
REPORTED_PROPERTY: growth at 10 µM (%)

INSERT INTO measurements (smiles_representation, reported_property, reported_value) VALUES
  ('Cc1ccc(S(=O)(=O)N2C/C(=C\c3c(Cl)cccc3Cl)C(=O)/C(=C/c3c(Cl)cccc3Cl)C2)cc1', 'growth at 10 µM', 83.7),
  ('O=C1/C(=C/c2ccc(Cl)cc2Cl)CN(S(=O)(=O)c2ccccc2)C/C1=C\c1ccc(Cl)cc1Cl', 'growth at 10 µM', -27.5),
  ('O=C1/C(=C/c2c(Cl)cccc2Cl)CN(S(=O)(=O)c2ccccc2)C/C1=C\c1c(Cl)cccc1Cl', 'growth at 10 µM', 71.5),
  ('Cc1ccc(S(=O)(=O)N2C/C(=C\c3cc(F)cc(F)c3)C(=O)/C(=C/c3cc(F)cc(F)c3)C2)cc1', 'growth at 10 µM', -78);

* * *

- ASSAY_INFO: Growth inhibition of human NCI-ADR-RES cells assessed as cell growth at 10^-5 M after 48 hrs by sulforhodamine B assay
- Type: functional
- ASSAY_CONDITIONS: read-out: Activity
Parameter: growth at 10 µM. Scope: all listed entries.
REPORTED_PROPERTY: growth at 10 µM (%)

INSERT INTO measurements (smiles_representation, reported_property, unit_spec, reported_value) VALUES
  ('O=C1/C(=C/c2ccc(Cl)cc2Cl)CN(S(=O)(=O)c2ccccc2)C/C1=C\c1ccc(Cl)cc1Cl', 'growth at 10 µM', '%', 20.5),
  ('Cc1ccc(S(=O)(=O)N2C/C(=C\c3cc(F)cc(F)c3)C(=O)/C(=C/c3cc(F)cc(F)c3)C2)cc1', 'growth at 10 µM', '%', 7.23),
  ('Cc1ccc(S(=O)(=O)N2C/C(=C\c3c(Cl)cccc3Cl)C(=O)/C(=C/c3c(Cl)cccc3Cl)C2)cc1', 'growth at 10 µM', '%', 90.9),
  ('O=C1/C(=C/c2c(Cl)cccc2Cl)CN(S(=O)(=O)c2ccccc2)C/C1=C\c1c(Cl)cccc1Cl', 'growth at 10 µM', '%', 81.6);

* * *

- ASSAY_INFO: Growth inhibition of human RXF393 cells assessed as cell growth at 10^-5 M after 48 hrs by sulforhodamine B assay
- Format: functional
- ASSAY_CONDITIONS: RXF 393, 48 h, read-out: Activity
REPORTED_PROPERTY: growth at 10 µM

INSERT INTO measurements (smiles_representation, reported_value) VALUES
  ('Cc1ccc(S(=O)(=O)N2C/C(=C\c3c(Cl)cccc3Cl)C(=O)/C(=C/c3c(Cl)cccc3Cl)C2)cc1', '101%'),
  ('Cc1ccc(S(=O)(=O)N2C/C(=C\c3cc(F)cc(F)c3)C(=O)/C(=C/c3cc(F)cc(F)c3)C2)cc1', '-88%'),
  ('O=C1/C(=C/c2c(Cl)cccc2Cl)CN(S(=O)(=O)c2ccccc2)C/C1=C\c1c(Cl)cccc1Cl', '95.3%'),
  ('O=C1/C(=C/c2ccc(Cl)cc2Cl)CN(S(=O)(=O)c2ccccc2)C/C1=C\c1ccc(Cl)cc1Cl', '-87%');

* * *

- System: SK-OV-3
- ASSAY_INFO: Growth inhibition of human SKOV3 cells assessed as cell growth at 10^-5 M after 48 hrs by sulforhodamine B assay
- Assay type: functional
- ASSAY_CONDITIONS: SK-OV-3, 48 h, read-out: Activity
REPORTED_PROPERTY: growth at 10 µM (%)

INSERT INTO assay_data (smiles_representation, unit_spec, reported_value) VALUES
  ('Cc1ccc(S(=O)(=O)N2C/C(=C\c3cc(F)cc(F)c3)C(=O)/C(=C/c3cc(F)cc(F)c3)C2)cc1', '%', -26),
  ('O=C1/C(=C/c2ccc(Cl)cc2Cl)CN(S(=O)(=O)c2ccccc2)C/C1=C\c1ccc(Cl)cc1Cl', '%', 44),
  ('O=C1/C(=C/c2c(Cl)cccc2Cl)CN(S(=O)(=O)c2ccccc2)C/C1=C\c1c(Cl)cccc1Cl', '%', 91.9),
  ('Cc1ccc(S(=O)(=O)N2C/C(=C\c3c(Cl)cccc3Cl)C(=O)/C(=C/c3c(Cl)cccc3Cl)C2)cc1', '%', 93.7);
